Form field: residual activity (one value per entry).
Biological target: Rho-associated protein kinase 2 (Homo sapiens) (UniProt O75116)
Sequence (O75116 whole entry, looked up): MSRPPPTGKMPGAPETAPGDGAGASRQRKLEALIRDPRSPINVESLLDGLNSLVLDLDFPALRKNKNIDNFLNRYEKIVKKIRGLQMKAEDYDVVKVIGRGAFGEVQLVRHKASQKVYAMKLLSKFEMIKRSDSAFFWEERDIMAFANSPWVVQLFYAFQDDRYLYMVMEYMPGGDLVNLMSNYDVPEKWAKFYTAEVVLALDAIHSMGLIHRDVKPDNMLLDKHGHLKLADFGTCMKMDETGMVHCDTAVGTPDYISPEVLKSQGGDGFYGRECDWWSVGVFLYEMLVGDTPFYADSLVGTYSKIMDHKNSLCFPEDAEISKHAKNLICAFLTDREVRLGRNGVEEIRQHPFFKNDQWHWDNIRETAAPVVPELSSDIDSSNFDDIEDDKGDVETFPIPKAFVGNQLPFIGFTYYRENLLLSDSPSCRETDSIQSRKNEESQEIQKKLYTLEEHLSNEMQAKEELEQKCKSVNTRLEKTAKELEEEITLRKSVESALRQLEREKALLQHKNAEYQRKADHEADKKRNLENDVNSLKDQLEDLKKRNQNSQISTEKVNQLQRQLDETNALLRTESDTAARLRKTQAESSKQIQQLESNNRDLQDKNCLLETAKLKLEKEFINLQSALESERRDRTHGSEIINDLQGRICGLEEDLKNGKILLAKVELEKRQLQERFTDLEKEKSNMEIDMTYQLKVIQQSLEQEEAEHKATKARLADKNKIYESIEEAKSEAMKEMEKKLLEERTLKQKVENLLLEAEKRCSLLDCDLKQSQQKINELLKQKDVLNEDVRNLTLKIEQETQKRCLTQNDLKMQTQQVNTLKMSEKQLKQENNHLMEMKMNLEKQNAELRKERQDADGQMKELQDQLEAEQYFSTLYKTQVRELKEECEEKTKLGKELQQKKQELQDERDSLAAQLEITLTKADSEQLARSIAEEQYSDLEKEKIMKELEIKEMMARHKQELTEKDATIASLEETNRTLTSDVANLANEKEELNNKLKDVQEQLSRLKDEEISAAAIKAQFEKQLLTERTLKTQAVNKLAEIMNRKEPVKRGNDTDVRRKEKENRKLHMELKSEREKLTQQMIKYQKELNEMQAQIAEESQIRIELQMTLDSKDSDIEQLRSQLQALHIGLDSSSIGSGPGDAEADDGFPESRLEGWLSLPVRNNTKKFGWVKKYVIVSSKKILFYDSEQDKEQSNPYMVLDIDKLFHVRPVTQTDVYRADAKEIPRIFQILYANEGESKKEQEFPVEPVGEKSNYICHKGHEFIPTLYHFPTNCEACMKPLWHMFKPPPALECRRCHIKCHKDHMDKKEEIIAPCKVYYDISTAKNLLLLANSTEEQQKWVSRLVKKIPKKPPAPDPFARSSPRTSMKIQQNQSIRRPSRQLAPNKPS
Conditions: at 1 µM
property-measured: residual activity (%)

[
  {
    "molecule": "CN(C)S(=O)(=O)c1ccc2c(c1)/C(=C/c1cc3c([nH]1)CCCC3)C(=O)N2",
    "endpoint-unit": "%",
    "assay-value": 99
  },
  {
    "molecule": "Nc1nc(Nc2ccc(S(N)(=O)=O)cc2)nn1C(=O)c1c(F)cccc1F",
    "endpoint-unit": "%",
    "assay-value": 16
  },
  {
    "molecule": "CCCCc1c(-c2ccc(OC)cc2)[nH]c2nccnc12",
    "endpoint-unit": "%",
    "assay-value": 79
  },
  {
    "molecule": "O=C1NC(=O)c2c1c1c3ccccc3[nH]c1n1cncc21",
    "endpoint-unit": "%",
    "assay-value": 88
  },
  {
    "molecule": "Nc1n[nH]c2nc3ccccc3nc12",
    "endpoint-unit": "%",
    "assay-value": 94
  },
  {
    "molecule": "O=C(c1cc2cc(O)ccc2[nH]1)c1cc2cc(O)ccc2[nH]1",
    "endpoint-unit": "%",
    "assay-value": 67
  },
  {
    "molecule": "O=S(=O)(c1cccc2cnccc12)N1CCCNCC1",
    "endpoint-unit": "%",
    "assay-value": 25
  },
  {
    "molecule": "Cn1c2ccccc2c2c3c(c4c5ccccc5n(CCC#N)c4c21)CNC3=O",
    "endpoint-unit": "%",
    "assay-value": 43
  },
  {
    "molecule": "CC(C)c1nn(-c2c(Cl)cccc2Cl)c2nc(Cc3ccc(OCCO)cc3)[nH]c(=O)c12",
    "endpoint-unit": "%",
    "assay-value": 98
  },
  {
    "molecule": "O=C(CCCc1ccc(-c2ccccc2F)cc1)Nc1ccc(O)cc1",
    "endpoint-unit": "%",
    "assay-value": 106
  },
  {
    "molecule": "CCCC(=O)Oc1ccc2[nH]c(C(=O)c3cc4ccccc4[nH]3)cc2c1",
    "endpoint-unit": "%",
    "assay-value": 93
  },
  {
    "molecule": "O=C(NC(NC(=S)Nc1ccc(F)c([N+](=O)[O-])c1)C(Cl)(Cl)Cl)C(c1ccccc1)c1ccccc1 (stereo unspecified)",
    "endpoint-unit": "%",
    "assay-value": 99
  },
  {
    "molecule": "O=C1C(Cl)=C(N2C(=O)CCC2=O)C(=O)c2ccccc21",
    "endpoint-unit": "%",
    "assay-value": 45
  },
  {
    "molecule": "NC(=O)Nc1sc(-c2ccc(F)cc2)cc1C(N)=O",
    "endpoint-unit": "%",
    "assay-value": 89
  },
  {
    "molecule": "COc1ccc(Cl)cc1NC(=O)Nc1cc(C)nc2ccccc12",
    "endpoint-unit": "%",
    "assay-value": 96
  },
  {
    "molecule": "N#C/C(=C\\c1ccc(O)c(O)c1)C(=O)NCc1ccccc1",
    "endpoint-unit": "%",
    "assay-value": 103
  },
  {
    "molecule": "CSc1nc(-c2ccc(F)cc2)c(-c2ccnc(NC(C)c3ccccc3)c2)[nH]1 (stereo unspecified)",
    "endpoint-unit": "%",
    "assay-value": 101
  },
  {
    "molecule": "Nc1ncnc2c1cnn2-c1ccccc1",
    "endpoint-unit": "%",
    "assay-value": 92
  },
  {
    "molecule": "O=C1Nc2ccc(Cl)cc2/C1=C/c1cc(Cl)c(O)c(Cl)c1",
    "endpoint-unit": "%",
    "assay-value": 96
  },
  {
    "molecule": "O=c1cc(N2CCOCC2)oc2c1ccc1ccccc12",
    "endpoint-unit": "%",
    "assay-value": 99
  },
  {
    "molecule": "CC(C)(C)c1nc2c3ccc(F)cc3c3c(=O)[nH]ccc3c2[nH]1",
    "endpoint-unit": "%",
    "assay-value": 57
  }
]

###

Form field: residual activity (one value per entry).
Molecular target: Dual specificity mitogen-activated protein kinase kinase 6 (Homo sapiens) (UniProt P52564)
Sequence (P52564 whole entry): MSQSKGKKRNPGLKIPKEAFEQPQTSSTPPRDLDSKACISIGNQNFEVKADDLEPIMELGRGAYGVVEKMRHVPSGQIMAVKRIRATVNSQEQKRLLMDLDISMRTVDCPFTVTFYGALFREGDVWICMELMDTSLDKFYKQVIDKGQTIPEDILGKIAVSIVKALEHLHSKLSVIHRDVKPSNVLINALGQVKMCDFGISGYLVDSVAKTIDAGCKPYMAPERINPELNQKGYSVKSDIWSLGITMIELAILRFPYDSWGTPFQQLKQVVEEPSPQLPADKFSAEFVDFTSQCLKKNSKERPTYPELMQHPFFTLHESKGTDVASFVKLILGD
Conditions: at 10 µM

[
  {
    "compound": "O=S(=O)(NCCNC/C=C/c1ccc(Br)cc1)c1cccc2cnccc12",
    "residual activity": "69%"
  },
  {
    "compound": "CCCCc1c(-c2ccc(OC)cc2)[nH]c2nccnc12",
    "residual activity": "80%"
  },
  {
    "compound": "Nc1nccc(-c2c(-c3ccc(F)cc3)ncn2C2CCNCC2)n1",
    "residual activity": "3%"
  },
  {
    "compound": "N#C/C(=C1/Nc2ccccc2S1)c1ccnc(NCCc2cccnc2)n1",
    "residual activity": "39%"
  },
  {
    "compound": "Cn1c2ccccc2c2c3c(c4c5ccccc5n(CCC#N)c4c21)CNC3=O",
    "residual activity": "1%"
  },
  {
    "compound": "O=C(O)/C=C/c1cc(Br)c(Br)c(Br)c1Br",
    "residual activity": "84%"
  },
  {
    "compound": "CC(C)(C)n1nc(Cc2cccc3ccccc23)c2c(N)ncnc21",
    "residual activity": "38%"
  },
  {
    "compound": "COc1cc2nccc(Oc3ccc(NC(=S)NC(=O)c4ccccc4C)cc3)c2cc1OC",
    "residual activity": "71%"
  },
  {
    "compound": "NC(=O)Nc1sc(-c2ccc(F)cc2)cc1C(N)=O",
    "residual activity": "41%"
  },
  {
    "compound": "c1ccc(-c2cnc(Nc3ccc(OCCN4CCCC4)cc3)s2)cc1",
    "residual activity": "72%"
  },
  {
    "compound": "COc1cc2nccc(Oc3ccc(NC(=O)Nc4cc(C)on4)c(Cl)c3)c2cc1OC",
    "residual activity": "21%"
  },
  {
    "compound": "CSc1nc(-c2ccc(F)cc2)c(-c2ccnc(NC(C)c3ccccc3)c2)[nH]1 (centres undefined)",
    "residual activity": "-2%"
  },
  {
    "compound": "Fc1ccc(-c2nc3n(c2-c2ccncc2)CCS3)cc1",
    "residual activity": "9%"
  },
  {
    "compound": "O=C1NC(=O)C(c2cn(CCCO)c3ncccc23)=C1c1cnccn1",
    "residual activity": "77%"
  },
  {
    "compound": "O=C(CCCc1ccc(-c2ccccc2F)cc1)Nc1ccc(O)cc1",
    "residual activity": "75%"
  },
  {
    "compound": "O=C(c1ccccc1)c1ccc(N2CCOCC2)cc1O",
    "residual activity": "79%"
  },
  {
    "compound": "COc1cc2ncnc(Nc3cccc(Cl)c3)c2cc1OC",
    "residual activity": "26%"
  },
  {
    "compound": "CN([C@@H](Cc1ccc(OS(=O)(=O)c2cccc3cnccc23)cc1)C(=O)N1CCN(c2ccccc2)CC1)S(=O)(=O)c1cccc2cnccc12",
    "residual activity": "124%"
  },
  {
    "compound": "Nc1ncnc2c1c(-c1ccc(Oc3ccccc3)cc1)cn2C1CCCC1",
    "residual activity": "89%"
  },
  {
    "compound": "O=c1cc(N2CCOCC2)oc2c1ccc1ccccc12",
    "residual activity": "86%"
  },
  {
    "compound": "NC(=O)c1ccc(-c2nc(-c3ccc4c(c3)OCCO4)c(-c3ccccn3)[nH]2)cc1",
    "residual activity": "58%"
  },
  {
    "compound": "O=C1Nc2ccc(Cl)cc2/C1=C/c1cc(Cl)c(O)c(Cl)c1",
    "residual activity": "38%"
  },
  {
    "compound": "O=C(Nc1nc2ccccc2n1CCN1CCOCC1)c1cccc([N+](=O)[O-])c1",
    "residual activity": "137%"
  },
  {
    "compound": "NC(=O)c1cccc(-c2cc(Nc3ccc(OC(F)(F)F)cc3)ncn2)c1",
    "residual activity": "95%"
  },
  {
    "compound": "CC(C)[C@H](CO)Nc1nc(Nc2cc(N)cc(Cl)c2)c2ncn(C(C)C)c2n1",
    "residual activity": "78%"
  },
  {
    "compound": "O=c1cc(N2CCNCC2)oc2c(-c3ccccc3)cccc12",
    "residual activity": "89%"
  },
  {
    "compound": "O=C(NC(NC(=S)Nc1ccc(F)c([N+](=O)[O-])c1)C(Cl)(Cl)Cl)C(c1ccccc1)c1ccccc1 (centres undefined)",
    "residual activity": "80%"
  },
  {
    "compound": "Nc1ncnc2[nH]nc(Nc3ccc(F)cc3)c12",
    "residual activity": "74%"
  },
  {
    "compound": "N#Cc1c(NC(=O)c2cccc3ccccc23)sc2c1CCCC2",
    "residual activity": "85%"
  }
]
